Assay: NCI Yeast Anticancer Drug Screen. Data for the rad50 strain (AID 155);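 further: 0% = growth of vehicle-only cultures of the same strain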
Conditions: S. cerevisiae rad50 strain growth inhibition; at 50.0 µM; hits give high values
The panel holds about 79,000 compounds, 15% with a hit somewhere; the sample as a whole holds those more often.
The entries below are paired with their reported growth inhibition.
// units = %; emit number, no label

Record excerpt, results attached:
{"molecule": "Cc1nn(C(=S)S)c(C)c1N=Nc1cccc(F)c1", "growth inhibition, %": 88.2}
{"molecule": "c1csc(-c2nccc3c2[nH]c2ccccc23)c1", "growth inhibition, %": 88}

Fill in the blank: the reported growth inhibition of O=C1C=CC(Nc2cccc([N+](=O)[O-])c2)C1Nc1cccc([N+](=O)[O-])c1 (stereo unspecified) is ____.
92.3

Another: "CC(=O)O[C@@H]1c2c(c3c(=O)c4cccc(O)c4c(=O)c=3c2=[N+]=[N-])[C@H](OC(C)=O)[C@@H](OC(C)=O)[C@]1(C)O"
92

Another: Cc1cc(Cl)c(O)c(C(=O)C(=O)C(O)c2ccc3c(c2)OCO3)c1 (stereo unspecified)
87.9

Another: "COC(=O)[C@@]12OC[C@]34[C@H]([C@@H](O)[C@@H]1O)[C@@]1(C)CC(=O)C(OC(=O)CC(=O)OC5=C(C)[C@@H]6C[C@H]7OC(=O)[C@H](OC(=O)/C=C(\C)C(C)C)[C@H]8[C@]9(C(=O)OC)OC[C@]78[C@H]([C@@H](O)[C@@H]9O)[C@@]6(C)CC5=O)=C(C)[C@@H]1C[C@H]3OC(=O)[C@H](OC(=O)/C=C(\C)C(C)C)[C@@H]24"
90.3

* * *

Test: NCI Yeast Anticancer Drug Screen. Data for the mlh1 rad18 strain (AID 175)
Settings: S. cerevisiae mlh1 rad18 strain growth inhibition; at 5.0 µM (retest, dose inferred, filed as 0.5); hits give high values
The panel holds about 79,000 compounds, 15% with a hit somewhere; the sample as a whole holds those more often.
The entries below are paired with their reported growth inhibition.
// units = %; emit number, no label

Fill in the blank: the reported growth inhibition of "CCC(COS(=O)(=O)c1ccc(C)cc1)(COS(=O)(=O)c1ccc(C)cc1)COS(=O)(=O)c1ccc(C)cc1" is ____.
-35

Another: "CCOC(=O)C1=C(Nc2ccc(Cl)c(Cl)c2)OC/C1=N\NS(=O)(=O)c1ccc(C)cc1"
27

Another: "CC(C)CCOc1ccc(/C=C\C(=O)O)cc1"
6

Another: "COc1ccc(Nc2nc3ccccc3s2)cc1"
10

Another: O=C(O)CN(CC(=O)O)C1CCCCC1N1CC(=O)OC(=O)C1 (stereo not given)
25

* * *

The entries below are paired with their reported growth inhibition.
Assay: NCI Yeast Anticancer Drug Screen. Data for the mlh1 rad18 strain (AID 175)
Settings: S. cerevisiae mlh1 rad18 strain growth inhibition; at 50.0 µM (retest, dose inferred, filed as 5.0); hits give high values
About 79,000 compounds went through this panel and 15% of them were active in at least one assay; those are over-represented in the sample as a whole. Calls of active or inactive are those of the source. Cut-off read from the data, not from the text of the source: active = growth inhibition above about 70%; inactive = the rest.

Record excerpt, results attached:
{"compound": "CCCCN(CCCC)CC(O)c1cc(-c2ccc(Cl)cc2)nc2c(C)cccc12 (configuration not stated)", "growth inhibition": "95% (active)"}
{"compound": "Cc1nc(-c2ccc(N=Cc3ccc(N(CCOS(C)(=O)=O)CCOS(C)(=O)=O)cc3)cc2)cs1", "growth inhibition": "54% (inactive)"}
{"compound": "O=C1C(c2c[nH]c3ccccc23)=Nc2ccc(Br)cc21", "growth inhibition": "35% (inactive)"}
{"compound": "O=C1C(=O)c2cc(Cl)ccc2-c2ccc(Cl)cc21", "growth inhibition": "95% (active)"}
{"compound": "O=c1oc(-c2cc([N+](=O)[O-])cc([N+](=O)[O-])c2Cl)nc2ccccc12", "growth inhibition": "57% (inactive)"}

Fill in the blank: the reported growth inhibition of "CCN(CC)C(=S)n1c(=S)nc(N(CC)CC)sc1=S" is ____.
98% (active)

Another: C1=NC(N(Cc2ccccc2)Cc2ccccc2)N(Cc2ccccc2)N1 (configuration not stated)
96% (active)

* * *

Assay: NCI Yeast Anticancer Drug Screen. Data for the bub3 strain (AID 167)
Settings: S. cerevisiae bub3 mutant strain, at 5.0 µM (retest, dose inferred, filed as 0.5), hits give high values
Protocol: Growth inhibition of yeast strains with defined genetic alterations is measured as a screen for potential anti-cancer activity. Selected strains with alterations in DNA damage repair or cell cycle control were exposed to compounds and growth inhibition was measured relative to vehicle treated controls. The strain used in this assay is bub3
About 79,000 compounds went through this panel and 15% of them were active in at least one assay; those are over-represented in the sample as a whole.
quantity name: growth inhibition (%)
// units = %; emit number, no label

{"compound": "CCCC(=S)N1CCOCC1", "growth inhibition [%]": -1}
{"compound": "Nc1cccc2c1[nH]c(=O)c1ccccc12", "growth inhibition [%]": -3}
{"compound": "CC(C)(C)NC(=S)N/N=C/c1ccccc1O", "growth inhibition [%]": 36}
{"compound": "CCN(CC)CCCCCCNc1cc(C)cc2ccc(C)nc12", "growth inhibition [%]": 7}
{"compound": "CC(=O)OC(OC(C)=O)c1ccc([N+](=O)[O-])o1", "growth inhibition [%]": -20}
{"compound": "CCOC(=O)C1=C(C)NC(=O)NC1c1coc2cc(C)cc(C)c2c1=O (configuration not stated)", "growth inhibition [%]": 14}

Now take the following compound into account.
Fill in the blank: the reported growth inhibition of "CCCNC(=O)N(CC(C)(C)C)S(=O)(=O)c1ccc(Cl)cc1" is ____.
7

* * *

Experiment: NCI Yeast Anticancer Drug Screen. Data for the bub3 strain (AID 167)
Conditions: S. cerevisiae bub3 mutant strain, at 50.0 µM (retest, dose inferred, filed as 5.0)
About 79,000 compounds went through this panel and 15% of them were active in at least one assay; those are over-represented in the sample as a whole. The source made the active and inactive calls. Rule as the data show it: active = growth inhibition above about 70%; inactive = the rest.
Valid outcomes are listed here; reply with one: active, inactive

// known answers, use as guide
{"compound": "CC(=O)Nc1ccc2c(c1)C(=Nc1ccc(F)cc1)c1ccccc1-2", "cat": "inactive"}
{"compound": "CC/S(=N\\S(=O)(=O)c1ccc(C)cc1)c1cccc[n+]1[O-] (stereo not given)", "cat": "active"}
{"compound": "CCn1c(=O)cc2n(C)c3ccccc3n2c1=O", "cat": "inactive"}
{"compound": "c1ccc2nc(C[n+]3cccc4ccccc43)ccc2c1", "cat": "active"}
{"compound": "CC(NC(=O)C(Cc1ccccc1)NC(=O)c1ccc[n+](Cc2ccccc2)c1)C(N)=O (stereo not given)", "cat": "inactive"}
{"compound": "CCCCCCOC(=O)Nc1ccc(S(=O)(=O)N2CCCCC2)cc1", "cat": "inactive"}
{"compound": "O=[N+]([O-])c1cccc(S(=O)(=O)Nc2cccc3ccccc23)c1", "cat": "active"}
{"compound": "CCCCN(CCCC)S(=O)(=O)c1ccccc1", "cat": "inactive"}
{"compound": "O=C1C(Br)CCC1(c1ccccc1)c1ccccc1 (stereo not given)", "cat": "active"}

Next, consider the following compound.
Entry "CC1(C)[C@@H]2CC[C@]1(C)[C@@H](OC(=O)CSC#N)C2" : call = ?
active

* * *

Experiment: NCI Yeast Anticancer Drug Screen. Data for the sgs1 mgt1 strain (AID 161);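 further: 0% = growth of cultures given vehicle only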
Conditions: S. cerevisiae sgs1 mgt1 strain, at 50.0 µM, hits give high values
The panel holds about 79,000 compounds, 15% with a hit somewhere; the sample as a whole holds those more often.
The entries below are paired with their reported growth inhibition.
// units = %; emit number, no label

{"smiles data": "NCCC1=CCCCC1", "growth inhibition / %": 88.3}
{"smiles data": "CC(=O)/C(=C\\c1cccc(Cl)c1)C(=O)CCN(C)C", "growth inhibition / %": 50.5}
{"smiles data": "COc1ccc(/C(Cl)=C(\\C=O)c2ccc(Cl)cc2)cc1OC", "growth inhibition / %": 21.6}

Fill in the blank: the reported growth inhibition of "Clc1ccnc2c1ccc1c(Cl)ccnc12" is ____.
20.7

Another: "O=C1OC(c2ccccc2)(c2ccccc2)Cc2ccccc21"
91

Another: "CCOC(=O)/C(=C/c1ccccc1Br)P(=O)(OCC)OCC"
41.9

Another: "NCC(=O)N/N=C/c1ccc([N+](=O)[O-])o1"
73.2

Another: "O=S(=O)(/C=C/c1cccnc1)/C=C/c1cccnc1"
5.3

Another: "COc1ccc(Nc2nc3ccccc3s2)cc1"
38.3

Another: "COc1ccc2c(c1)S(=O)(=O)C(c1ccccc1)=CC2=O"
99.2

Another: "CCO/C=C1N=C(/C=C/c2ccccc2Cl)OC/1=O"
50.2

Another: "COc1ccc(OC)c(NC(=O)CCCC(=O)CC(=O)c2cccnc2)c1"
-5.2

Another: "O=C(Nc1ccc(NC(=O)Nc2cc(C(=O)Nc3ccc(C4=NCCN4)cc3)ccc2C(=O)Nc2ccc(C3=NCCN3)cc2)cc1)Nc1cc(C(=O)Nc2ccc(C3=NCCN3)cc2)ccc1C(=O)Nc1ccc(C2=NCCN2)cc1"
95.9

Another: "COc1ccc(NS(=O)(=O)c2ccc(F)cc2)cc1"
98.5

Another: "CC(C)C1=CC[C@H]2C(=C1)CC[C@@H]1[C@]2(C)CCC[C@@]1(C)C(=O)O"
74.8

Another: "Nc1cc(Br)c2cccnc2c1O"
98
